molecular target: SHP2-C SH2; test: SH2 binding enrichment of the phosphorylated peptide, bacterial display (enrichment ratio); higher = better substrate or ligand; peptides without Tyr show the background;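 also: peptide library displayed on the E. coli surface as eCPX fusions, selected cells deep-sequenced, score is each peptide's frequency after selection divided by its frequency in the input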
The recorded SH2 binding enrichment of each item maps onto one of these classes: low bracket (below 0.7), middle bracket (0.7 to below 1), high bracket (1 or more)

Some solved entries appear below for comparison.
[
  {
    "ordered_residues": "ISDNAYQFMLT [MYH7_Y162_YF]",
    "discrete_label": "middle bracket"
  },
  {
    "ordered_residues": "CTAIHYNFMCN [TP53_Y234_T231A_YF]",
    "discrete_label": "high bracket"
  },
  {
    "ordered_residues": "KELANYYKLHH [AK7_Y390]",
    "discrete_label": "low bracket"
  },
  {
    "ordered_residues": "DYSLKYPTDIP [APC_Y1183_A1184P]",
    "discrete_label": "low bracket"
  },
  {
    "ordered_residues": "RHPEVYHHLGI [NVL_Y290_V295I]",
    "discrete_label": "high bracket"
  }
]

Q. Dear colleague, I would appreciate it if you could identify the bin for KPGVNYFFQVS and reply at your convenience.
A. high bracket

Q. Dear colleague, I would appreciate it if you could identify the bin for ISDDKYGRIRL [ARCN1_Y310] and reply at your convenience.
A. low bracket

Q. Dear colleague, I would appreciate it if you could identify the bin for RLASVYTKRCS [CPT2_Y508_P504L] and reply at your convenience.
A. middle bracket

Q. Dear colleague, I would appreciate it if you could identify the bin for PFDAEYGGGGG [AKR1B10_Y316_N313D] and reply at your convenience.
A. middle bracket

Q. Dear colleague, I would appreciate it if you could identify the bin for RGEKQYLAAPL [ALOX12_Y295] and reply at your convenience.
A. low bracket
